System: LOX IMVI
Assay: cells
Conditions: Homo sapiens, 48 h, read-out: Median Growth Inhibitory Concentration (GI50)
Items are presented alongside their recorded GI50.
Value and unit, in that order.

Compound	GI50
COc1cc(/C=C/C(=O)CC(=O)/C=C/c2ccc(O)c(OC)c2)ccc1O [Curcumin]	2.5 µM
CC1(/C=C/c2ccccc2O)C=Cc2ccccc2O1 (stereo not shown) [EF7]	17.2 µM
CC(=O)O.O=C1C(=Cc2ccccc2F)CNCC1=Cc1ccccc1F [EF24]	0.2 µM

# next compound below
Simply: OC(CCc1ccc(F)cc1F)CCc1ccc(F)cc1F [EF19, 1,5-Bis(2,4-difluorophenyl)-pentan-3-ol] , LOX IMVI, GI50 = 20 µM
